Experiment: Clearance in dog at 1 mg/kg, iv
Assay type: ADME, organism-based, Canis lupus familiaris
Design: dose 1 mg/kg, route intravenous
Settings: in vivo
measurement kind: clearance (mL/min/kg)
Enter your answer as a number in mL/min/kg; do not include the unit.

As a guide, the following entries are already answered.
COC(=O)N[C@H](C(=O)N1CCC[C@H]1C(=O)Nc1ccc([C@@H]2CC[C@@H](c3ccc(NC(=O)[C@@H]4CCCN4C(=O)[C@@H](NC(=O)OC)C(C)C)cc3)N2c2ccc(C(C)(C)C)cc2)cc1)C(C)C [OMBITASVIR] ... 3
COC(=O)N[C@H](C(=O)N1CCC[C@H]1C(=O)Nc1ccc([C@H]2CC[C@H](c3ccc(NC(=O)[C@@H]4CCCN4C(=O)[C@@H](NC(=O)OC)C(C)(C)C)cc3)N2c2ccc(F)cc2)cc1)C(C)(C)C ... 2.17
COC(=O)N[C@H](C(=O)N1CCC[C@H]1C(=O)Nc1ccc([C@H]2CC[C@H](c3ccc(NC(=O)[C@@H]4CCCN4C(=O)[C@@H](NC(=O)OC)C(C)C)cc3)N2c2ccc(C(F)(F)F)cc2)cc1)C(C)C ... 4.83
COC(=O)N[C@H](C(=O)N1CCC[C@H]1C(=O)Nc1ccc([C@H]2CC[C@H](c3ccc(NC(=O)[C@@H]4CCCN4C(=O)[C@@H](NC(=O)OC)C(C)C)cc3)N2c2ccc(F)cc2)cc1)C(C)C ... 21.7

Param item = "COC(=O)N[C@H](C(=O)N1CCC[C@H]1C(=O)Nc1ccc([C@@H]2CC[C@@H](c3ccc(NC(=O)[C@@H]4CCCN4C(=O)[C@@H](NC(=O)OC)C(C)C)cc3)N2c2ccc(C(F)(F)F)cc2)cc1)C(C)C" ; retrieve measured clearance.
2.67

* * *

Each entry below carries its reported half-life.
Experiment: Half life in rat at 3 mg/kg, iv
Type: ADME, organism-based
Parameters: dose 3 mg/kg, route intravenous
Details: in vivo
Enter your answer as a number in h; do not include the unit.

Param item = "COC(=O)N[C@H](C(=O)N1CCC[C@H]1C(=O)Nc1ccc([C@@H]2CC[C@@H](c3ccc(NC(=O)[C@@H]4CCCN4C(=O)[C@@H](NC(=O)OC)C(C)(C)C)cc3)N2c2ccc(C(C)(C)C)cc2)cc1)C(C)(C)C" ; retrieve measured half-life.
8.2

* * *

Each entry below carries its reported Tmax.
Assay: Tmax in dog at 2.5 mg/kg, po
Type: ADME, organism-based, Canis lupus familiaris
Set-up: dose 2.5 mg/kg, route oral
Details: in vivo
Enter your answer as a number in h; do not include the unit.

COC(=O)N[C@H](C(=O)N1CCC[C@H]1C(=O)Nc1ccc([C@@H]2CC[C@@H](c3ccc(NC(=O)[C@@H]4CCCN4C(=O)[C@@H](NC(=O)OC)C(C)C)cc3)N2c2ccc(C(C)(C)C)cc2)cc1)C(C)C ... 3.3
COC(=O)N[C@H](C(=O)N1CCC[C@H]1C(=O)Nc1ccc([C@H]2CC[C@H](c3ccc(NC(=O)[C@@H]4CCCN4C(=O)[C@@H](NC(=O)OC)C(C)C)cc3)N2c2ccc(F)cc2)cc1)C(C)C ... 1.2

Param item = "COC(=O)N[C@H](C(=O)N1CCC[C@H]1C(=O)Nc1ccc([C@H]2CC[C@H](c3ccc(NC(=O)[C@@H]4CCCN4C(=O)[C@@H](NC(=O)OC)C(C)C)cc3)N2c2ccc(C(F)(F)F)cc2)cc1)C(C)C" ; retrieve measured Tmax.
1.7

What would you report for "COC(=O)N[C@H](C(=O)N1CCC[C@H]1C(=O)Nc1ccc([C@@H]2CC[C@@H](c3ccc(NC(=O)[C@@H]4CCCN4C(=O)[C@@H](NC(=O)OC)C(C)C)cc3)N2c2ccc(C(F)(F)F)cc2)cc1)C(C)C" ?
4.7

What would you report for "COC(=O)N[C@H](C(=O)N1CCC[C@H]1C(=O)Nc1ccc([C@H]2CC[C@H](c3ccc(NC(=O)[C@@H]4CCCN4C(=O)[C@@H](NC(=O)OC)C(C)(C)C)cc3)N2c2ccc(F)cc2)cc1)C(C)(C)C" ?
2.7

* * *

Each entry below carries its reported Vd.
Assay: Volume of distribution at steady state in rat at 3 mg/kg, iv
Assay type: ADME, organism-based
Set-up: dose 3 mg/kg, route intravenous
Details: in vivo, read-out: Vdss
Enter your answer as a number in L/kg; do not include the unit.

As a guide, the following entries are already answered.
COC(=O)N[C@H](C(=O)N1CCC[C@H]1C(=O)Nc1ccc([C@H]2CC[C@H](c3ccc(NC(=O)[C@@H]4CCCN4C(=O)[C@@H](NC(=O)OC)[C@H]4CCOC4)cc3)N2c2ccc(F)cc2)cc1)[C@H]1CCOC1 ... 1.5
COC(=O)N[C@H](C(=O)N1CCC[C@H]1C(=O)Nc1ccc([C@@H]2CC[C@@H](c3ccc(NC(=O)[C@@H]4CCCN4C(=O)[C@@H](NC(=O)OC)C(C)(C)C)cc3)N2c2ccc(C(C)(C)C)cc2)cc1)C(C)(C)C ... 2.3
COC(=O)N[C@H](C(=O)N1CCC[C@H]1C(=O)Nc1ccc([C@@H]2CC[C@@H](c3ccc(NC(=O)[C@@H]4CCCN4C(=O)[C@@H](NC(=O)OC)[C@H]4CCOC4)cc3)N2c2ccc(F)cc2)cc1)[C@H]1CCOC1 ... 0.5
COC(=O)N[C@H](C(=O)N1CCC[C@H]1C(=O)Nc1ccc([C@@H]2CC[C@@H](c3ccc(NC(=O)[C@@H]4CCCN4C(=O)[C@@H](NC(=O)OC)C(C)C)cc3)N2c2ccc(C(F)(F)F)cc2)cc1)C(C)C ... 8.9
COC(=O)N[C@H](C(=O)N1CCC[C@H]1C(=O)Nc1ccc([C@H]2CC[C@H](c3ccc(NC(=O)[C@@H]4CCCN4C(=O)[C@@H](NC(=O)OC)C(C)(C)C)cc3)N2c2ccc(F)cc2)cc1)C(C)(C)C ... 1

Param item = "COC(=O)N[C@H](C(=O)N1CCC[C@H]1C(=O)Nc1ccc([C@H]2CC[C@H](c3ccc(NC(=O)[C@@H]4CCCN4C(=O)[C@@H](NC(=O)OC)C(C)(C)C)cc3)N2c2ccc(C(C)(C)C)cc2)cc1)C(C)(C)C" ; retrieve measured Vd.
1.7

What would you report for "COC(=O)N[C@H](C(=O)N1CCC[C@H]1C(=O)Nc1ccc([C@H]2CC[C@H](c3ccc(NC(=O)[C@@H]4CCCN4C(=O)[C@@H](NC(=O)OC)C(C)C)cc3)N2c2ccc(F)cc2)cc1)C(C)C" ?
0.5

What would you report for "COC(=O)N[C@H](C(=O)N1CCC[C@H]1C(=O)Nc1ccc([C@H]2CC[C@H](c3ccc(NC(=O)[C@@H]4CCCN4C(=O)[C@@H](NC(=O)OC)C(C)C)cc3)N2c2ccc(C(F)(F)F)cc2)cc1)C(C)C" ?
1.3

What would you report for "COC(=O)N[C@H](C(=O)N1CCC[C@H]1C(=O)Nc1ccc([C@@H]2CC[C@@H](c3ccc(NC(=O)[C@@H]4CCCN4C(=O)[C@@H](NC(=O)OC)C(C)C)cc3)N2c2ccc(F)cc2)cc1)C(C)C" ?
2.4

What would you report for "COC(=O)N[C@H](C(=O)N1CCC[C@H]1C(=O)Nc1ccc([C@H]2CC[C@H](c3ccc(NC(=O)[C@@H]4CCCN4C(=O)[C@@H](NC(=O)OC)C(C)C)cc3)N2c2ccc(C(C)(C)C)cc2)cc1)C(C)C" ?
2.2

* * *

Test: Lipophilicity, log D of the compound at pH 7.4 by HPLC analysis
Type: physicochemical
Details: buffer
logD under 5 gets Fulfilled, anything at or over 5 gets Not fulfilled.

Look over these answered cases.
COC(=O)N[C@H](C(=O)N1CCC[C@H]1C(=O)Nc1ccc([C@H]2CC[C@H](c3ccc(NC(=O)[C@@H]4CCCN4C(=O)[C@@H](NC(=O)OC)[C@H]4CCOC4)cc3)N2c2ccc(F)cc2)cc1)[C@H]1CCOC1 ... Fulfilled
COC(=O)N[C@H](C(=O)N1CCC[C@H]1C(=O)Nc1ccc([C@@H]2CC[C@@H](c3ccc(NC(=O)[C@@H]4CCCN4C(=O)[C@@H](NC(=O)OC)C(C)(C)C)cc3)N2c2ccc(F)cc2)cc1)C(C)(C)C ... Not fulfilled

I'd appreciate it if you could check whether "COC(=O)N[C@H](C(=O)N1CCC[C@H]1C(=O)Nc1ccc([C@H]2CC[C@H](c3ccc(NC(=O)[C@@H]4CCCN4C(=O)[C@@H](NC(=O)OC)C(C)(C)C)cc3)N2c2ccc(F)cc2)cc1)C(C)(C)C" has logD smaller than 5.
Not fulfilled

What would you report for "COC(=O)N[C@H](C(=O)N1CCC[C@H]1C(=O)Nc1ccc([C@@H]2CC[C@@H](c3ccc(NC(=O)[C@@H]4CCCN4C(=O)[C@@H](NC(=O)OC)C(C)C)cc3)N2c2ccc(C(F)(F)F)cc2)cc1)C(C)C" ?
Fulfilled

What would you report for "COC(=O)N[C@H](C(=O)N1CCC[C@H]1C(=O)Nc1ccc([C@H]2CC[C@H](c3ccc(NC(=O)[C@@H]4CCCN4C(=O)[C@@H](NC(=O)OC)C(C)C)cc3)N2c2ccc(C(C)(C)C)cc2)cc1)C(C)C" ?
Not fulfilled

What would you report for "COC(=O)N[C@H](C(=O)N1CCC[C@H]1C(=O)Nc1ccc([C@H]2CC[C@H](c3ccc(NC(=O)[C@@H]4CCCN4C(=O)[C@@H](NC(=O)OC)[C@@H](C)OC)cc3)N2c2ccc(F)cc2)cc1)[C@@H](C)OC" ?
Fulfilled

Sourced from ChEMBL document CHEMBL3124779
